Hello, the source for this data is PubChem BioAssay (NCI), in case you need it.

Tested on: T-47D breast
assayRemarks: NCI-60 one-dose screen, 48 h (100 = growth as untreated, 0 = no growth, -100 = all killed)
reportedConditions: 10 µM unless noted
The panel holds about 83,000 compounds, 20% with a hit somewhere; the sample as a whole holds those more often.
// NB: equality with 80% counts as N; only growth strictly below is Y

Input: Does the reported growth of the following compound sit strictly below 80%? Nc1cc(-c2ccc(Cl)cc2)nn1-c1nc(-c2ccc(Br)cc2)cs1
Output: N

----------
Tested on: A549/ATCC NSCLC
assayRemarks: NCI-60 one-dose screen, 48 h
reportedConditions: 10 µM unless noted
Compounds without any hit were thinned out: in the full panel of roughly 83,000, 20% have a hit. Calls of active or inactive are those of the source. The calls were made as follows: active = growth percent below 10; inactive = the rest.
Thanks in advance; please answer with one of these: active, inactive

compound	qualitativeLabel
COC(=O)c1cc(-c2cc(OC)c(OC)c(OC)c2)[nH]c1N/N=C/c1c(Cl)cccc1Cl	inactive
Cc1c(C(=O)C(SC(=S)N2CCOCC2)SC(=S)N2CCOCC2)nnn1-c1ccc([N+](=O)[O-])cc1	inactive

Input: I would be grateful if you could indicate the recorded call for c1ccc(-c2nc(N3CCNCC3)c3oc(-c4ccccc4)nc3n2)cc1 .
Output: active

Input: I would be grateful if you could indicate the recorded call for CC(C)c1nc(N(C)S(C)(=O)=O)nc(-c2ccc(F)cc2)c1/C=C/C(=O)C[C@@H](O)CC(=O)O .
Output: inactive
